Assay: yeast display, Sf9 membrane polyspecificity reagent, FACS + sequencing; frameworks hold sequencing errors

{"Chain": "QVQLVESGGGLVQAGGSLRLSCAASGITFVNYAMGWYIQAPGKERELVAAISQSGAITFYADSVKGRFTISRDYAKNNVYLQMNSLKPEDTEVYYCAARRRRGDRSAYDYWGQGTQVTVSS", "polyreactivity (PSR sort gate)": "high polyreactivity"}
{"Chain": "QVQLVESGGGLVQAGGSLRLSCAASGSTSWIYAMGWYRQAPGKERELVAAISGRDGSTNYADSVKGRFTISRDNAKNTVYLQMNSLKPEDTAVYYCNATGRRFNRYGGDYWGQGTQVTVSS", "polyreactivity (PSR sort gate)": "high polyreactivity"}

###

Experiment: yeast display, Sf9 membrane polyspecificity reagent, FACS + sequencing; frameworks hold sequencing errors
Parameter Measured: polyreactivity (PSR sort gate)

{"Chain": "QVQLVESGGGLVQAGGSLRLRCAASGGTFSGYTMGWYRQAPGKERELVAAINWSGGRTYYADSVKGRFTISRDNAKNTVYLQMNSLKPEDTAVYYCNKYGLYYREYDYWGQGTQVTVSS", "Readout Value": "high polyreactivity"}
{"Chain": "QFQLVESGGGLVQAGGSLRLSCAASGITFDVNAMGCYIQAPGKERELVASITAGGNTYYSDSVKGRFTISRDNAKNTVYLQMNSLKPVDTAVYFCAAVSTSLYCAGYDYWGQGTQVTVSS", "Readout Value": "low polyreactivity"}
{"Chain": "QVQLVESGGGLVQAGGSLRLSCAASGRIFRRNTKGWYRQAPGKERELVAAITSAGGSTYADSVKGRFTISRDNAKNTVYFQMNSLKPEDTAVYYCATYVAYHRGYRTYDHWAQGTQVTVSS", "Readout Value": "low polyreactivity"}
{"Chain": "QVQLVESGGGLVQAGGSLRLSCAASGFTLHSYAMGWYRQAPWKERELVAAITRSGGGTYYADSVKGRFTISRDNAKNTVYLQMNSLKPEDTAVYYCAARFGGQYQHDYWGQGTQVTVSS", "Readout Value": "high polyreactivity"}

Could you now consider this next sequence?
For QVQLVESGGGLVQAGGSLRLSCAASGFIFRYYAMGWYRQAPGKERELVATINSSGGSTYYADSVKGRFTISRDNAKNTVYLQMNSLKPEDTAVYYCYAGYVSYRGQSRYEYWGQGTQVTVSS , write its polyreactivity (PSR sort gate). high polyreactivity

###

Test: yeast display, Sf9 membrane polyspecificity reagent, FACS + sequencing; frameworks hold sequencing errors
Parameter Measured: polyreactivity (PSR sort gate)

The examples below pair each entry with its known result.
{"Chain": "QVQLVESGGGLVQAGGSLRLSCAASGSTFQFYAMGWYRQAPGKERELVAVITSGDDTNYADSVKGRFTISRDNAKNTVYLQMNSLKPEDTAVYYCAVEYILVYTRVRSYWFDYWGQGTQVTVSS", "Readout Value": "low polyreactivity"}
{"Chain": "QDQHVESGGGLVQAGGRLRLSCAASGRIFSFYVMGWYIQAPGKERELVASISLSGGSTYYADSVKGRFTFSRDNAKNTVYLQMNSLKPEDTEVYYCNAVLYARQRERWARYDYWGQGTQVTVSS", "Readout Value": "high polyreactivity"}
{"Chain": "QVQLVESGGGLVQAGGSLRLSCAAPGIIFVDYTMGWYRQAPGKERELVAAIDWSGGSTYYADSVKGRFTISRDNAKNTVYLQMNSLKPEDTAVYYCAALKTTYIYSSDFDYWGQGTQVTVSS", "Readout Value": "low polyreactivity"}
{"Chain": "QVQLVESGGGLVQAGGSLRLSCAASGSIIRTYAMGWYRQAPGKERELVAAISGSGSRTYYADSVKGRFTISRDNAKNTVYLQMNSLKPEDSAVYYCAADPGTPRYQFLWYGYWGQGTQVTVSS", "Readout Value": "low polyreactivity"}
{"Chain": "QVQLEESGGGLVQAGGSLRLSCAASGGNFPVNAIGWYRQAPGKERELVATITYDGGNTYYADSVKGRFTISRDNAKNTVYLQMNSLKPEDTAVYYCAARTPQRSEWTKYGYWGQGTLVTVSS", "Readout Value": "low polyreactivity"}
{"Chain": "QVQLVESGGGLVKAGGSLRLSCAASGFIFTQNAMGWYRQAPGKERELVAAISGTGGSTYYADSVKGRFTISRDNAKNTVYLQMNSLKPEDTAVYYCAARRRQEHVGRSSYARYDYWGQGTQVTVSS", "Readout Value": "high polyreactivity"}

For QVQLVESGGGLVQAGGSIRLSCAASGFTFYYNTMGCYRQAPGKERELVAAISYSAGSTFYADSVKGRFTISRDNAKNTVYLQMNSLKTEDTAVYYCAAGRPRRHKGYHFGYWGQGTQVTVSS , write its polyreactivity (PSR sort gate). low polyreactivity

For QVQLVESGGGLVQAGGSLRLSCAASGRIFWYYAMGWYRQAPGKERELVATISSGGRTNYADSVKGRCTISRDNAKNTVYLQMNSLKPEDTAVYYCAAKHPISTLYDYWGQGTQVTVSS , write its polyreactivity (PSR sort gate). high polyreactivity

For QVQLVESGGGLVQAGGSLRLSCAASGSIFYVNVMGWYRQAPGKERELVATISSGDTNYADSVKGRFTISRDNAKNTVYLQMNSLKPEDTAVYYCARRRTIPYTLVDYDSWGQGTQVTVSS , write its polyreactivity (PSR sort gate). low polyreactivity

For QVQLVESGGGVVQAGGSLRLSCDASGSTFDTYAMGWYRQAPGKERELVAGNTRRGGRTYYADSVKGRFTISRDNAKNTVYVQMNSLKPEDSAVYYCNALPQRPVGKRDHWGQGTQVTVSS , write its polyreactivity (PSR sort gate). high polyreactivity

For QVQLVESGGGLVQAGGSLRLSCAASGNLFDYYAMGWYRQAPGKERELVAAISTGTSTYADSVKGRFTISRDNAKNTVYLQMNSLKPEDTAVYYCAADVGIRPLNYHPYNYWGQGTQVTVSS , write its polyreactivity (PSR sort gate). low polyreactivity
